Where do these numbers come from? They come from ChEMBL document CHEMBL1201862.

- Tested on: OVCAR-8
- EXPERIMENT DESCRIPTION: NCI tumour cell line growth inhibition, 48 h
Calls of active or inactive are those of the source. Cut-off read from the data, not from the text of the source: active = GI50 up to about 1.1 µM and inactive = higher.
We begin with a simple list: items and their reported GI50.

COMPOUND: CCCCCC(/C=N/Nc1ccccc1)C(O)(C(F)(F)F)C(F)(F)F (stereo not given)
GI50: > 100 µM (inactive)
--
COMPOUND: Nc1cc2c(c3ccccc13)C(CCl)CN2C(=O)c1cc2cc(NC(=O)c3cc4ccccc4o3)ccc2[nH]1 (stereo not given)
GI50: 0.000408 µM (active)
--
COMPOUND: CCOC(=O)/C(C#N)=C(N)/C(=N\Nc1cccc(C(F)(F)F)c1)C(=O)OCC
GI50: > 100 µM (inactive)
--
COMPOUND: Cc1cccc(NC(=O)CC(=O)N2N=C(N(CCC#N)c3ccc(Cl)cc3)CC2c2ccccc2)c1 (stereo not given)
GI50: > 100 µM (inactive)
--
COMPOUND: CCCCC(=O)Nc1ccc2cc(C(=O)OC)c(ON3C(=O)c4ccccc4C3=O)nc2n1
GI50: 25 µM (inactive)
--
COMPOUND: CC(=O)CC(=O)Nc1ccc(OS(N)(=O)=O)cc1
GI50: > 100 µM (inactive)
--
COMPOUND: O=[N+]([O-])c1cccc2nccc(NCCCO)c12
GI50: 14.5 µM (inactive)
--
COMPOUND: CSc1ccc2c(c1)c(CCN)c(C)n2Cc1ccccc1Cl
GI50: 1.79 µM (inactive)
--
COMPOUND: Cc1cc(Cl)ccc1NC(=O)/C(Cl)=C(/Cl)C(=O)O
GI50: 17.7 µM (inactive)
--
COMPOUND: O=CC1=C(C(=O)OC(c2ccccc2)c2ccccc2)N2C(=O)[C@@H](NC(=O)Cc3cccs3)[C@H]2SC1
GI50: > 100 µM (inactive)

---

- Tested on: HL-60
- EXPERIMENT DESCRIPTION: NCI tumour cell line growth inhibition, 48 h
Activity calls are given as the source filed them. No stated cut-off is given here; in the data, active = GI50 up to about 1.1 µM and inactive = higher.
Classes used: active, inactive

COMPOUND: O=C(Oc1c(Br)cc(Br)cc1C(=O)Oc1ccccc1)C(=O)Oc1c(Br)cc(Br)cc1C(=O)Oc1ccccc1
GROUP: active
--
COMPOUND: O=C1Nc2ccccc2S/C1=C\c1cccc(C(F)(F)F)c1
GROUP: inactive
--
COMPOUND: CC1CC(C)(C)CC(OCCN2CCCCC2)(c2ccccc2)C1 (stereo unspecified)
GROUP: inactive
--
COMPOUND: COC(=O)N1C=CC2=C(C)C3Nc4ccccc4C3C(C)=C2C1 (stereo unspecified)
GROUP: inactive
--
COMPOUND: COC(=O)C1=C(C(=O)OC)SC(=C(/N=N/c2ccccc2)c2ccccc2)S1
GROUP: inactive
--
COMPOUND: CN(C)NC(=S)Nc1ccccc1Br
GROUP: inactive
--
COMPOUND: CN1CCc2c(sc3nc(Nc4ccccc4)n(N)c(=O)c23)C1
GROUP: inactive
--
COMPOUND: CC(C(=O)c1ccncc1)c1ccccn1 (stereo unspecified)
GROUP: inactive
--
COMPOUND: O=C1C=CC[C@H]2O[C@@H](COC(=O)Cc3ccccc3)C[C@H]2O1
GROUP: inactive
--
COMPOUND: OC1COC(OCc2ccccc2)C(O)C1O (stereo unspecified)
GROUP: inactive
--
COMPOUND: O=C(Nn1c(-c2ccccc2)nc2ccccc2c1=O)c1ccc(O)cc1
GROUP: inactive
--
COMPOUND: CC(C)=CCc1c(O)ccc2c1OC1c3ccc(O)c(CC=C(C)C)c3OCC21 (stereo unspecified)
GROUP: inactive
--
COMPOUND: O=C(O)C1[C@@H](C(=O)O)C1(Br)CBr (stereo partly specified)
GROUP: inactive
--
COMPOUND: O=C(O)CCC(NC(=O)c1ccc(Nc2cnc3cc(C(F)(F)F)ccc3n2)cc1)C(=O)O (stereo unspecified)
GROUP: inactive
--
COMPOUND: COc1cc2c(cc1OC)C1CN3CCCC3C(O)C1c1cc(OC)c(OC)cc1-2 (stereo unspecified)
GROUP: inactive
--
COMPOUND: Cn1nc(-c2ccccc2)c(C(=O)/C=C/c2ccc(F)cc2)c(N2CCOCC2)c1=O
GROUP: inactive
--
COMPOUND: [O-][Cl+3]([O-])([O-])O.c1ccc(/N=c2\nc(N3CCOCC3)ss2)cc1
GROUP: inactive
--
COMPOUND: O=C1c2cccc3c2C(=O)c2c(cccc21)OCCOCCOCCOCCO3
GROUP: inactive
--
COMPOUND: COc1ccc(C(=O)C(C(=O)C(=O)NCCCNC(=O)C(=O)C(C(=O)c2ccc(OC)cc2)c2ccc(OC)cc2)c2ccc(OC)cc2)cc1 (stereo unspecified)
GROUP: inactive
--
COMPOUND: Nc1ccc(C(=O)NN2C(=O)C(Cl)C2c2ccc(O)cc2)cc1 (stereo unspecified)
GROUP: inactive
--
COMPOUND: CC1(C)[C@@H]2CC[C@@]1(C)[C@H](O)[C@@H]2SCc1ccccc1
GROUP: inactive

---

- Test system: Malme-3M
- EXPERIMENT DESCRIPTION: NCI tumour cell line growth inhibition, 48 h
The source made the active and inactive calls. No stated cut-off is given here; in the data, active = GI50 up to about 1.1 µM and inactive = higher.

COMPOUND: CC(C)N(C(C)C)S(=O)(=O)CC12CCC(C/C1=N\O)C2 (stereo not given)
GI50: > 100 µM (inactive)
//
COMPOUND: CCOC(=O)Nc1ccc(S(=O)(=O)OC)cc1.CCOC(=O)Nc1ccc(S(=O)(=O)OC)cc1.NC(=O)NCCO
GI50: > 50 µM (inactive)
//
COMPOUND: COc1cc(/C=C/c2ccccn2)cc(OC)c1OC
GI50: > 10 µM (inactive)
//
COMPOUND: CC(=O)N1CCN(c2ccc(OCC3COC(Cn4ccnc4)(c4ccc(Cl)cc4Cl)O3)cc2)CC1 (stereo not given)
GI50: 28.8 µM (inactive)
//
COMPOUND: CC1=CP(=O)(OC(C)C)CC(C)=C1Cl (stereo not given)
GI50: > 100 µM (inactive)

---

- System: EKVX
- EXPERIMENT DESCRIPTION: NCI tumour cell line growth inhibition, 48 h
Activity calls are given as the source filed them. Cut-off read from the data, not from the text of the source: active = GI50 up to about 1.1 µM and inactive = higher.

MOLECULE: O=c1ccc2ccccc2o1
GI50: > 100 µM (inactive)
--
MOLECULE: CCC1(C)N=c2c(ncn2N=C(C)C)=C(C(N)=O)N1 (stereo unspecified)
GI50: > 100 µM (inactive)
--
MOLECULE: CCCCN1C=CN2c3nc4cc(C)c(C)cc4n3C(C(=O)OC)=C(C(=O)OC)C12 (stereo unspecified)
GI50: > 100 µM (inactive)
--
MOLECULE: O=[N+]([O-])C(C(Cl)=C(Cl)Cl)=C(n1nnc2ccccc21)n1nnc2ccccc21
GI50: > 59.3 µM (inactive)
--
MOLECULE: COc1cc(/C=C2\CCC(C)C3=C(c4cc(OC)c(OC)c(OC)c4)C(C#N)=C(N)OC32)cc(OC)c1OC (stereo unspecified)
GI50: 3.08 µM (inactive)
--
MOLECULE: O=C1c2cc3c(cc2CC12Cc1cc4c(cc1C2=O)CCC4)CCC3
GI50: > 100 µM (inactive)
--
MOLECULE: COc1cc(CCN(C)C)cc(OC)c1OC
GI50: > 100 µM (inactive)
--
MOLECULE: CCOC(=O)/C(C#N)=C(N)/C(=N\Nc1cccc(C(F)(F)F)c1)C(=O)OCC
GI50: > 100 µM (inactive)
--
MOLECULE: NNC(=O)c1nnn(N)c1S
GI50: > 100 µM (inactive)
--
MOLECULE: COC(=O)c1ccccc1C1CN=NC12Cc1c(C)cc(C)cc1C2=O (stereo unspecified)
GI50: > 100 µM (inactive)
--
MOLECULE: COC(=O)C1(CCCCCBr)CCCCCCCCCCC1=O (stereo unspecified)
GI50: 78.9 µM (inactive)
